- METHOD: protein stability index of a GFP-peptide fusion (yeast GPS) (PSI 1-4); higher = more stable; sorted into four equal gates, so the index is relative within each strain
- CONDITION NOTES: san1∆
QUANTITY NAME: protein stability index

The examples below pair each entry with its known result.
| SEQUENCE CODE | protein stability index |
| --- | --- |
| KDFLKAVDKVISGYKKF [RPT1] | 3.12 |
| IKKFAKLHMGTDDVRLA [RPL31A] | 1.24 |
| KYKSGGKFSFSPLQKEE [SSN2] | 1.46 |
| RYISTLTLYLFQDYLTQ [IRR1] | 3.14 |
| KLDIISDPESERPAIEF [RPN14] | 3.03 |
| TEGHKGHEELKRRIEEE [ISW2] | 3.11 |
| LKSSLADVLSILAMTYS [RPN1] | 1.89 |
| QKEEGRSFTKAIEDAKK [YLR335W/NUP2] | 3.05 |

Query :: For the sequence shown here, NLEIPAYEFDGDKVIVG [RIP1] , give the reported protein stability index.
Result :: 2.65

Query :: For the sequence shown here, LYDSLASTPSIRPDGRL [RRP42] , give the reported protein stability index.
Result :: 2.4

Query :: For the sequence shown here, LEAARSEKQNDEEAAGA [PRP8] , give the reported protein stability index.
Result :: 2.61

Query :: For the sequence shown here, LEAPVKSIENPTQTKGN [YLR335W/NUP2] , give the reported protein stability index.
Result :: 3.15

Query :: For the sequence shown here, KNNLLIPDLSIQNDIYL [RPN12] , give the reported protein stability index.
Result :: 2.98

Query :: For the sequence shown here, ATMSVFLQRIDFQIDGN [RRI2] , give the reported protein stability index.
Result :: 2.95

Query :: For the sequence shown here, RIDAFNALEHKYFTESD [SSN3] , give the reported protein stability index.
Result :: 2.95
